Test: collision cross section of modified peptide (TIMS, N2, iRT-aligned); higher = larger / more extended gas-phase ion
Conditions: charge state: 3; modification: Succinyl
Measurement Label: collision cross section (Å²)
Give the quantity in Å², number only.

stdin: Which collision cross section value belongs to DESFLGKLGGTLAR [_DESFLGK(Succinyl)LGGTLAR_] ?
stdout: 490.1

stdin: // same read-out, input: LTEKELAEAASK [_LTEK(Succinyl)ELAEAASK_]
stdout: 454.1

stdin: Repeat with ATVASSTQKFQDLGVK [_ATVASSTQK(Succinyl)FQDLGVK_]
stdout: 493.48

stdin: Queued: VNIGQGSHPQKVK [_VNIGQGSHPQK(Succinyl)VK_]
stdout: 481.33

stdin: Here is the next sequence: VSPASSVDSNIPSSQGYKK [_VSPASSVDSNIPSSQGYK(Succinyl)K_]
stdout: 548.84

stdin: For IINEPTAAAIAYGLDKK [_IINEPTAAAIAYGLDK(Succinyl)K_] then?
stdout: 564.64

stdin: # iterate: DLGKFQVATDALK [_DLGK(Succinyl)FQVATDALK_]
stdout: 478.58

stdin: One more sequence: LLEEEDSKLK [_LLEEEDSK(Succinyl)LK_]
stdout: 464.35

stdin: Param item: VGTASVLQPVKK [_VGTASVLQPVK(Succinyl)K_]
stdout: 412.94

stdin: What about this sequence? PASGAGAGAGAGKR [_PASGAGAGAGAGK(Succinyl)R_]
stdout: 462.42

stdin: Field entry: ISSNFSSIIAEKLR [_ISSNFSSIIAEK(Succinyl)LR_]
stdout: 512.74

###

Assay: collision cross section of modified peptide (TIMS, N2, iRT-aligned); higher = larger / more extended gas-phase ion
Conditions: charge state: 3; modification: Acetyl (K)
Hi there, I'd appreciate the recorded collision cross section for every entry that follows.
I only need the number, in Å², no unit after it.

stdin: Returns the measured collision cross section for the input sequence. Input: YEQEHAAIQDKLFQVAK [_YEQEHAAIQDK(Acetyl (K))LFQVAK_]
stdout: 513.78

stdin: Param item: GETASKLQSEISR [_GETASK(Acetyl (K))LQSEISR_]
stdout: 464.45

stdin: Then this sequence: SGNLTEDDKHNNAK [_SGNLTEDDK(Acetyl (K))HNNAK_]
stdout: 469.35

stdin: Input STGLELETPSLVPVKK [_STGLELETPSLVPVK(Acetyl (K))K_]
stdout: 518.73

stdin: One more sequence: ITESVAETAQTIKK [_ITESVAETAQTIK(Acetyl (K))K_]
stdout: 510.01

stdin: Here is the next sequence: GTISAPGKVVTAAAQAK [_GTISAPGK(Acetyl (K))VVTAAAQAK_]
stdout: 515.28

stdin: Check VETTVTSLKTK [_VETTVTSLK(Acetyl (K))TK_] too.
stdout: 444.47

stdin: Another sequence: IHVQSSSDSSDEPAEKR [_IHVQSSSDSSDEPAEK(Acetyl (K))R_]
stdout: 501.64

stdin: And then ISSNFSSIIAEKLR [_ISSNFSSIIAEK(Acetyl (K))LR_] , what is it?
stdout: 506.75

stdin: Repeat with PASGAGAGAGAGKR [_PASGAGAGAGAGK(Acetyl (K))R_]
stdout: 456.58

stdin: Would you kindly repeat that for VGIDTPDIDIHGPEGKLK [_VGIDTPDIDIHGPEGK(Acetyl (K))LK_] ?
stdout: 536.56

stdin: Same for FDDTNPEKEEAK [_FDDTNPEK(Acetyl (K))EEAK_]
stdout: 440.01

stdin: Lookup VYIASSSGSTAIKK [_VYIASSSGSTAIK(Acetyl (K))K_]
stdout: 503.2

stdin: Subsequent entry: VTLEVGKVIQQGR [_VTLEVGK(Acetyl (K))VIQQGR_]
stdout: 479.97

stdin: Another sequence to look at: IHNAENIQPGEQKYEYK [_IHNAENIQPGEQK(Acetyl (K))YEYK_]
stdout: 525.52

stdin: Next sequence: AAQASDLEKIHLDEK [_AAQASDLEK(Acetyl (K))IHLDEK_]
stdout: 495.59

stdin: And for DAIHFYNKSLAEHR [_DAIHFYNK(Acetyl (K))SLAEHR_] ?
stdout: 504.71

stdin: Can you check AGQKLIDVNHYAK [_AGQK(Acetyl (K))LIDVNHYAK_] next?
stdout: 479.89

stdin: Cool, now TQAYQDQKPGTSGLR [_TQAYQDQK(Acetyl (K))PGTSGLR_]
stdout: 480.53

stdin: Item: DDSFLGKLGGTLAR [_DDSFLGK(Acetyl (K))LGGTLAR_]
stdout: 489.73

stdin: And what about the sequence TTGFYSGFSEVAEKR [_TTGFYSGFSEVAEK(Acetyl (K))R_] ?
stdout: 508.12

stdin: Entry to check: LEEVTGKLQVAR [_LEEVTGK(Acetyl (K))LQVAR_]
stdout: 467.89

###

Test: collision cross section of modified peptide (TIMS, N2, iRT-aligned); higher = larger / more extended gas-phase ion
Details: charge state: 3; modification: Acetyl (K)
Kindly state collision cross section for each of the entries shown.
Supply the numeric figure in Å², leaving out any unit text.

stdin: collision cross section lookup needed for VGLQVVAVKAPGFGDNR [_VGLQVVAVK(Acetyl (K))APGFGDNR_] , thanks.
stdout: 493.83

stdin: Entry VLDSGAPIKIPVGPETLGR [_VLDSGAPIK(Acetyl (K))IPVGPETLGR_] please
stdout: 505.97

stdin: # iterate: VGVEVPDVNIEGPEGKLK [_VGVEVPDVNIEGPEGK(Acetyl (K))LK_]
stdout: 513.89

stdin: What would you report for DSINFLDHINGKK [_DSINFLDHINGK(Acetyl (K))K_] ?
stdout: 470.59

stdin: Quick one: ATVASSTQKFQDLGVK [_ATVASSTQK(Acetyl (K))FQDLGVK_]
stdout: 493.63

stdin: What about this sequence? TQDQISNIKYHEEFEK [_TQDQISNIK(Acetyl (K))YHEEFEK_]
stdout: 555.65

stdin: Try the sequence GEVGAGAGPGAQAGPSAKR [_GEVGAGAGPGAQAGPSAK(Acetyl (K))R_]
stdout: 478.86

stdin: For LQDVSGQLSSSKK [_LQDVSGQLSSSK(Acetyl (K))K_] then?
stdout: 461.64

stdin: Repeat with IINEPTAAAIAYGLDKK [_IINEPTAAAIAYGLDK(Acetyl (K))K_]
stdout: 554.46

stdin: Moving on to SKHLQEQLNELK [_SK(Acetyl (K))HLQEQLNELK_]
stdout: 483.11

stdin: // same read-out, input: KYEEIDNAPEER [_K(Acetyl (K))YEEIDNAPEER_]
stdout: 493.17

stdin: Same question, ISALQGKLSK [_ISALQGK(Acetyl (K))LSK_] this time
stdout: 432.36

stdin: Again, but for GFALVGVGSEASSKK [_GFALVGVGSEASSK(Acetyl (K))K_]
stdout: 499.93

stdin: Also check LLIVSTTPYSEKDTK [_LLIVSTTPYSEK(Acetyl (K))DTK_]
stdout: 486.31

stdin: Same question for LDHLAEKFR [_LDHLAEK(Acetyl (K))FR_] please.
stdout: 438.53

stdin: Same question for DESFLGKLGGTLAR [_DESFLGK(Acetyl (K))LGGTLAR_] please.
stdout: 491.27

stdin: What do you have for ANLEKAQAELVGTADEATR [_ANLEK(Acetyl (K))AQAELVGTADEATR_] ?
stdout: 570.31

stdin: And then DFDTALKHYDK [_DFDTALK(Acetyl (K))HYDK_] , what is it?
stdout: 463.37

stdin: Record: IVFSGNLFQHQEDSKK [_IVFSGNLFQHQEDSK(Acetyl (K))K_]
stdout: 536.07

stdin: What would you report for LQEKVESAQSEQK [_LQEK(Acetyl (K))VESAQSEQK_] ?
stdout: 502.13

stdin: Can you handle SITHSTVGSKGEK [_SITHSTVGSK(Acetyl (K))GEK_] next?
stdout: 440.5

stdin: What would you report for HELQANCYEEVKDR [_HELQANCYEEVK(Acetyl (K))DR_] ?
stdout: 495.42

###

Record form. Attribute: collision cross section. Fill in for each entry.
Assay: collision cross section of modified peptide (TIMS, N2, iRT-aligned); higher = larger / more extended gas-phase ion
Conditions: charge state: 2; modification: Glutarylation
Give the number; Å² is assumed, so skip it.

stdin: I would be grateful if you could share the reported collision cross section for VGVEVPDVNIEGPEGKLK [_VGVEVPDVNIEGPEGK(Gluratylation)LK_] .
stdout: 461.98

stdin: And the next one, ASAISIKLGSSK [_ASAISIK(Gluratylation)LGSSK_] ?
stdout: 376.68

stdin: // query: GFALVGVGSEASSKK [_GFALVGVGSEASSK(Gluratylation)K_]
stdout: 416.74

stdin: # iterate: PSVGSQSNQAGQGKR [_PSVGSQSNQAGQGK(Gluratylation)R_]
stdout: 412.64

stdin: Query SLKLNTAEDAK [_SLK(Gluratylation)LNTAEDAK_] next
stdout: 381.67
